Target: UniProt P30989
Sequence (P30989 whole entry): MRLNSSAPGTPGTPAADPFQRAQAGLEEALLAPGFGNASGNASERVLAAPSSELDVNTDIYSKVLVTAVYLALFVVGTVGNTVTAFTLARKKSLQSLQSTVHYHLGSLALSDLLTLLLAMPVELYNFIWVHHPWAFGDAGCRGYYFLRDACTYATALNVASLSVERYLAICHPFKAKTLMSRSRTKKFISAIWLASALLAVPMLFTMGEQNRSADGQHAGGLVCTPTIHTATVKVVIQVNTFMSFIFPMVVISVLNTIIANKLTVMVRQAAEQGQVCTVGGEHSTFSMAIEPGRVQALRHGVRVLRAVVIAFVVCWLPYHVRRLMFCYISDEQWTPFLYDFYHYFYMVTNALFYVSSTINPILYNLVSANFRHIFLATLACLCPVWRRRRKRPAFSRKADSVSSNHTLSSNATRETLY
Assay: Radioligand competition binding with [^3H]UR-MK300 at intact HT-29 colon carcinoma cells
Settings: [^3H]UR-MK300, intact HT-29 cells, 23 °C; read-out: NTS1R pKi ± SEM (converted)
Starred links: 1 amine or outer side, 2 acyl side, 3 side chain; linkers in the order of their positions; H or OH if unused. Non-standard residues stand in square brackets, D forms with d. Residues, ends and D or L forms follow the SMILES beside them. *: point of attachment. X1 = CN(C)c1ccc2c(-c3ccc(C(=O)*)cc3C(=O)[O-])c3ccc(=[N+](C)C)cc-3oc2c1; X4 = NCCCCNC(=O)N=C(N)NCCC[C@H](N[*:1])C(=O)[*:2]; dTyr(β,β-Me2) = CC(C)(c1ccc(O)cc1)[C@@H](N)C(=O)O; Gly(piperidin-4-yl) = N[C@H](C(=O)O)C1CCNCC1; X2 = O=C(CCc1cn(CCCN[*:1])nn1)[*:2]; Pent4ynoyl = C#CCCC(=O)*; Pra = C#CC[C@H](N)C(=O)O; Propionyl = CCC(=O)*; GABA = NCCCC(=O)O
Overview of reported Ki across a group of molecules:
Respond with the bare value in nM.

Consider the following illustrative entries.
C#CCCC(=O)N[C@H](C(=O)N1CCC[C@H]1C(=O)N[C@@H](CCCNC(N)=NC(=O)NCCCCN)C(=O)N[C@@H](CCCNC(=N)N)C(=O)N1CCC[C@H]1C(=O)N[C@@H](Cc1ccc(O)cc1)C(=O)N[C@H](C(=O)N[C@@H](CC(C)C)C(=O)O)[C@@H](C)CC)C1CCNCC1 [Compound 6] (Pent4ynoyl-[Gly(piperidin-4-yl)]P[X4]RPYIL-OH) ... 0.603
C#CCCC(=O)N[C@H](C(=O)N1CCC[C@H]1C(=O)N[C@@H](CCCNC(N)=NC(=O)NCCCCN)C(=O)N[C@@H](CCCNC(=N)N)C(=O)N1CCC[C@H]1C(=O)N[C@@H](C(=O)N[C@H](C(=O)N[C@@H](CC(C)C)C(=O)O)[C@@H](C)CC)C(C)(C)c1ccc(O)cc1)C1CCNCC1 [Compound 10b] (Pent4ynoyl-[Gly(piperidin-4-yl)]P[X4]RP[dTyr(β,β-Me2)]IL-OH) ... 135
CCC(=O)NCCCC(=O)N[C@@H](Cc1cn(CCCNC(=O)c2ccc(-c3c4ccc(=[N+](C)C)cc-4oc4cc(N(C)C)ccc34)c(C(=O)[O-])c2)nn1)C(=O)N[C@H](C(=O)N1CCC[C@H]1C(=O)N[C@@H](CCCNC(=N)N)C(=O)N[C@@H](CCCNC(=N)N)C(=O)N1CCC[C@H]1C(=O)N[C@@H](Cc1ccc(O)cc1)C(=O)N[C@H](C(=O)N[C@@H](CC(C)C)C(=O)O)[C@@H](C)CC)C1CCNCC1 [Compound 16] ... 0.724

**Q:** Recall the reported Ki of C#CC[C@H](NC(=O)CCCN)C(=O)N[C@H](C(=O)N1CCC[C@H]1C(=O)N[C@@H](CCCNC(=N)N)C(=O)N[C@@H](CCCNC(=N)N)C(=O)N1CCC[C@H]1C(=O)N[C@@H](Cc1ccc(O)cc1)C(=O)N[C@H](C(=O)N[C@@H](CC(C)C)C(=O)O)[C@@H](C)CC)C1CCNCC1 [Compound 9] (H-[GABA][Pra][Gly(piperidin-4-yl)]PRRPYIL-OH) when tested on UniProt P30989.
**A:** 0.302

**Q:** Recall the reported Ki of CCC(=O)NCCCC[C@@H](NC(=O)CCc1cn(CCCNC(=O)c2ccc(-c3c4ccc(=[N+](C)C)cc-4oc4cc(N(C)C)ccc34)c(C(=O)[O-])c2)nn1)C(=O)N1CCC[C@H]1C(=O)N[C@@H](CCCNC(=N)N)C(=O)N[C@@H](CCCNC(=N)N)C(=O)N1CCC[C@H]1C(=O)N[C@@H](Cc1ccc(O)cc1)C(=O)N[C@H](C(=O)N[C@@H](CC(C)C)C(=O)O)[C@@H](C)CC [Compound 15] (X1-[X2][dK](Propionyl)PRRPYIL-OH) when tested on UniProt P30989.
**A:** 2.95

**Q:** Recall the reported Ki of CCC(=O)NCCCCNC(=O)NC(=N)NCCC[C@H](NC(=O)[C@@H]1CCCN1C(=O)[C@@H](NC(=O)CCc1cn(CCCNC(=O)CCC#Cc2ccc3c(c2)C(C)(C)C2=C4C=C5C6=[N+](CCC5OC4CCN23)c2ccc(S(=O)(=O)[O-])cc2C6(C)C)nn1)C1CCNCC1)C(=O)N[C@@H](CCCNC(=N)N)C(=O)N1CCC[C@H]1C(=O)N[C@H](C(=O)N[C@H](C(=O)N[C@@H](CC(C)C)C(=O)O)[C@@H](C)CC)C(C)(C)c1ccc(O)cc1 (stereo partly drawn) [Compound 18] when tested on UniProt P30989.
**A:** 4.07
